Each entry below carries its recorded EC50.
Test system: Zidovudine^R/Lamivudine^R (3) clinical HIV-1 isolates (third group of Table 7)
ASSAY DETAILS: microbe, parasite or virus in culture
Type: cell-based
EXPERIMENTAL PARAMETERS: Human immunodeficiency virus 1, read-out: EC50 (μM), mean EC50 values
RESULT TYPE: EC50 (µM)

* Cc1cn([C@H]2C[C@H](N=[N+]=[N-])[C@@H](CO)O2)c(=O)[nH]c1=O | 0.83
* Nc1nc(NC2CC2)c2ncn([C@H]3CO[C@@H](CO)O3)c2n1 [Compound A (-)] | 0.19

###

System: HT1080
ASSAY DETAILS: Cellular toxicity by [3H]-thymidine uptake
Format: cell-based
EXPERIMENTAL PARAMETERS: Table 4; 72 hrs; read-out: CC50 (μM) [^3H-]TTP incorporation in: HT1080
RESULT TYPE: CC50

• Nc1nc(N)c2ncn([C@H]3CO[C@@H](CO)O3)c2n1 [DAPD, (−)-β-D -2,6-diaminopurine dioxolane] = > 500 µM
